Property: growth; scope: individual compounds
system: HCT-116 colon; experiment: NCI-60 one-dose screen, 48 h (100 = growth as untreated, 0 = no growth, -100 = all killed); conditions: 10 µM unless noted
The panel holds about 83,000 compounds, 20% with a hit somewhere; the sample as a whole holds those more often.
A number alone suffices; assume %.

Recorded results for 2 compounds are shown here.
smiles_str	tested_on	u	assay_result
Fc1ccc(-n2cc(COc3ncnc4sc5c(c34)CCCC5)nn2)cc1Cl	HCT-116 colon	%	101
CC1=CC[C@@H]2CC[C@]3(C)[C@H](CC[C@@H]4[C@@]5(C)CCCNC(C)(C)[C@@H]5CC[C@]43C)[C@H]2[C@@H]1C	HCT-116 colon	%	-32.1

QUERY: Please give the measured growth for this compound: "COc1cc(COC(=O)CCCCC[P+](c2ccccc2)(c2ccccc2)c2ccccc2)c(OC)c2c1OCO2"
RESULT: 33.2

QUERY: Lookup "N#Cc1c(NC(=O)c2cccc(Br)c2)sc2c1CCCC2"
RESULT: 74.9

QUERY: Lookup "O=C(Nc1ccc(F)cc1)c1c(NC(=O)C(F)(F)F)sc2c1CCCCC2"
RESULT: 1.79
